Molecular target: T1, cynomolgus monkey IL-33 expressed with a C-terminal hexahistidine tag (cynomolgus monkey)
T1 construct: also called MfIL-33-6His; Mf-IL-33-6His
T1 chain: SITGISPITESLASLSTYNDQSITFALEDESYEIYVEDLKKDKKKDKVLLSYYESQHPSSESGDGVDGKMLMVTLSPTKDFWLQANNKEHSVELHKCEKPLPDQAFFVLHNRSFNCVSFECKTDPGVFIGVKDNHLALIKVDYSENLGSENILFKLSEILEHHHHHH
Assay: SPR 37C pH7.4, mAb captured
readout: pKd
Give only the number. pKd is defined as minus log10 of concentration in molar units.

1. H1M9559N (antibody, mouse IgG1, V domains shown, Human variable domains, mouse IgG1 Fc (H1M)) VH: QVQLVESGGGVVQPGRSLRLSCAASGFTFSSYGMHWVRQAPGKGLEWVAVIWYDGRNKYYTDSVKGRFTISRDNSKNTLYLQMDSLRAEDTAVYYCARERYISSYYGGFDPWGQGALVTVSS VL: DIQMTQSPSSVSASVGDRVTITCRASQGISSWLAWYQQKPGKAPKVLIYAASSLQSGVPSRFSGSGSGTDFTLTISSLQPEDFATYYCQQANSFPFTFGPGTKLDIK
8.15

Request: Identify the reported pKd for the following entry. H4H9667P (antibody, human IgG4, V domains shown, Human IgG4 Fc (H4H)) VH: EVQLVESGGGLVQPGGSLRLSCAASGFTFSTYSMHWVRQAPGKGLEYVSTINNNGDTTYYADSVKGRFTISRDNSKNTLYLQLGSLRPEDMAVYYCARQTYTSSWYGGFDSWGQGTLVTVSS VL: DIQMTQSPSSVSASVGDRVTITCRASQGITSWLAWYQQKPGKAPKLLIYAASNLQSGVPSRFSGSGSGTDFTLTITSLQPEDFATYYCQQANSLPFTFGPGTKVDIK
Response: 8.33

Request: Identify the reported pKd for the following entry. H4H9671P (antibody, human IgG4, V domains shown, Human IgG4 Fc (H4H)) VH: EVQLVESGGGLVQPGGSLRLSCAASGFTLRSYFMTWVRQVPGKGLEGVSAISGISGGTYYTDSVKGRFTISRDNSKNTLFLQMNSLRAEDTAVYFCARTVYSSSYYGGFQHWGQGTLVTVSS VL: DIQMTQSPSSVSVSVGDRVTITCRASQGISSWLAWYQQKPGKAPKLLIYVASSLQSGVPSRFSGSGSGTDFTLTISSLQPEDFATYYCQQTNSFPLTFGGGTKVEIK
Response: 8.29
